Source: the antibiotic and cytotoxicity screens of Wong et al. (2023)

System: HepG2
assay comment: cytotoxicity call (relative viability < 0.9)
conditions: 10 µM
The whole screen tested about 39,000 compounds, of which about 3,300 (8.5%) were called active. Only a selection was taken, and actives are over-represented in it overall.
Outcome codes: TRUE = active, FALSE = inactive

# smiles, tgt, group label
records = [
    ("CNC[C@H]1Oc2ccc(NS(=O)(=O)c3cn(C)cn3)cc2CC(=O)N([C@@H](C)CO)C[C@H]1C", "HepG2", "FALSE"),
    ("C[C@@H]1CCCCO[C@H](CN(C)Cc2ccc(C(F)(F)F)cc2)[C@@H](C)CN([C@H](C)CO)C(=O)c2cc(NS(=O)(=O)c3cn(C)cn3)ccc2O1", "HepG2", "FALSE"),
    ("C[C@@H]1CN([C@H](C)CO)C(=O)c2cc(NC(=O)C3CCCCC3)ccc2O[C@@H](C)CCCCO[C@H]1CN(C)Cc1ccncc1", "HepG2", "FALSE"),
    ("Cc1ccc(S[C@]2(C(=O)NC3CC3)CC(=O)N(C3Cc4ccccc4C3)[C@@H]2c2ccc(CO)cc2I)cc1", "HepG2", "FALSE"),
    ("C[C@@H]1CCCCO[C@H](CN(C)CC2CCCCC2)[C@H](C)CN([C@@H](C)CO)C(=O)c2cc(NC(=O)Nc3ccccc3)ccc2O1", "HepG2", "TRUE"),
    ("CC(C)Oc1ccccc1OCc1cnnn1CC(=O)NS(=O)(=O)c1ccccc1OC(F)(F)F", "HepG2", "FALSE"),
    ("C[C@@H]1CCCCO[C@H](CN(C)CC2CC2)[C@@H](C)CN([C@H](C)CO)C(=O)c2cc(NC(=O)Nc3ccccc3)ccc2O1", "HepG2", "FALSE"),
    ("C=CCC[C@H](Cc1ccc(F)cc1)C(=O)OC[C@@H](NC(=O)[C@H](CC=C)CC(=O)N(CCO)Cc1ccccc1)C(C)(C)C", "HepG2", "FALSE"),
    ("COc1ccc(CN(C)C[C@H]2OCCCC[C@@H](C)Oc3ccc(NC(=O)Nc4c(C)noc4C)cc3C(=O)N([C@H](C)CO)C[C@@H]2C)cc1", "HepG2", "FALSE"),
    ("C[C@H](CO)N1C[C@H](C)[C@@H](CN(C)CC2CCCCC2)OCCCC[C@H](C)Oc2ccc(NC(=O)Nc3ccccc3)cc2C1=O", "HepG2", "FALSE"),
    ("Cc1noc(C)c1NC(=O)Nc1ccc2c(c1)CC(=O)N([C@H](C)CO)C[C@@H](C)[C@H](CN(C)Cc1ccc(C(F)(F)F)cc1)O2", "HepG2", "FALSE"),
    ("C[C@@H]1CN([C@H](C)CO)C(=O)c2cc(NS(=O)(=O)c3cn(C)cn3)ccc2O[C@@H](C)CCCCO[C@@H]1CN(C)S(=O)(=O)c1ccccc1", "HepG2", "FALSE"),
    ("CC(C)NC(=O)N(C)C[C@@H]1OCCCC[C@@H](C)Oc2ccc(NC(=O)Nc3ccc(F)cc3)cc2C(=O)N([C@H](C)CO)C[C@H]1C", "HepG2", "FALSE"),
    ("C[C@@H]1CN([C@@H](C)CO)C(=O)c2cc(NC(=O)Nc3ccccc3)ccc2O[C@@H](C)CCCCO[C@H]1CN(C)CC1CCCCC1", "HepG2", "FALSE"),
]
